These entries and their values trace back to patent US20230233690A1.

- Method: PK parameters in male mice (Table 9)
- Format: in vivo
- Measurement setup: IV 1 mg/kg
Known AUC(0-t) of a selection of compounds
Readout type: AUC(0-t) (ng·h/mL)

compound="N#Cc1ccc(O[C@H]2CC[C@H](NC(=O)c3ccc(N4CCC(N5CCN(c6ccc7c(c6)C(=O)N(C6CCC(=O)NC6=O)C7=O)CC5)CC4)cc3)CC2)cc1Cl (stereo partly drawn)" numeric_value=2425
compound="CN(c1ccc(C#N)c(Cl)c1)[C@H]1CC[C@H](NC(=O)c2ccc(N3CC(CN4CCN(c5ccc6c(c5)C(=O)N(C5CCC(=O)NC5=O)C6=O)CC4)C3)cc2)CC1 (stereo partly drawn)" numeric_value=1118
compound="CN(c1ccc(C#N)c(Cl)c1)[C@H]1CC[C@H](NC(=O)c2ccc(N3CCC(CN4CCN(c5ccc6c(c5)C(=O)N(C5CCC(=O)NC5=O)C6=O)CC4)CC3)cc2)CC1 (stereo partly drawn)" numeric_value=693

---

Known half-life of a selection of compounds
- Method: PK parameters in male mice (Table 9)
- Type: in vivo
- Measurement setup: ICR, mouse, in vivo, IV 1 mg/kg
Readout type: half-life (min)

compound="N#Cc1ccc(O[C@H]2CC[C@H](NC(=O)c3ccc(N4CCN(C5CCN(c6ccc7c(c6)C(=O)N(C6CCC(=O)NC6=O)C7=O)CC5)CC4)cc3)CC2)cc1Cl (stereo partly drawn)" numeric_value=540
compound="CCN(c1ccc(C#N)c(Cl)c1)[C@H]1CC[C@H](NC(=O)c2ccc(N3CCC(N4CCN(c5ccc6c(c5)C(=O)N(C5CCC(=O)NC5=O)C6=O)CC4)CC3)cc2)CC1 (stereo partly drawn)" numeric_value=246
compound="CN(c1ccc(C#N)c(Cl)c1)[C@H]1CC[C@H](NC(=O)c2ccc(N3CCN(CC4CCN(c5ccc6c(c5)C(=O)N(C5CCC(=O)NC5=O)C6=O)CC4)CC3)cc2)CC1 (stereo partly drawn)" numeric_value=1560

---

- Method: PK parameters in male ICR mice
- Assay type: in vivo
- Measurement setup: mouse, in vivo, IV 2 mg/kg, read-out: AUC0-t
- Method: The pharmacokinetics (PK) of representative Compounds of the Disclosure were evaluated in mice or rats to provide an assessment of their oral bioavaibility. All animal experiments were performed under the guidelines of the University of Michigan Committee for Use and Care of Animals and using an approved animal protocol.
Readout type: AUC(0-t) (ng·h/mL)

compound="CC1(C)[C@H](NC(=O)c2ccc(N3CCN(C4CN(c5ccc6c(c5)C(=O)N(C5CCC(=O)NC5=O)C6=O)C4)CC3)cc2)C(C)(C)[C@H]1Oc1ccc(C#N)c(Cl)c1 (stereo partly shown)" result_unit=ng·h/mL numeric_value=14600

---

Known AUC(0-t) of a selection of molecules
- Method: PK parameters in male mice (Table 9)
- Format: in vivo
- Measurement setup: ICR, mouse, in vivo, PO 3 mg/kg, read-out: AUC(0-t)
Readout type: AUC(0-t) (ng·h/mL)

molecule="N#Cc1ccc(O[C@H]2CC[C@H](NC(=O)c3ccc(N4CCN(C5CCN(c6ccc7c(c6)C(=O)N(C6CCC(=O)NC6=O)C7=O)CC5)CC4)cc3)CC2)cc1Cl (stereo partly drawn) [compound 222]" numeric_value=1990
molecule="CN(c1ccc(C#N)c(Cl)c1)[C@H]1CC[C@H](NC(=O)c2ccc(N3CCN(CC4CCN(c5ccc6c(c5)C(=O)N(C5CCC(=O)NC5=O)C6=O)CC4)CC3)cc2)CC1 (stereo partly drawn) [compound 233]" numeric_value=940
molecule="CCN(c1ccc(C#N)c(Cl)c1)[C@H]1CC[C@H](NC(=O)c2ccc(N3CCC(N4CCN(c5ccc6c(c5)C(=O)N(C5CCC(=O)NC5=O)C6=O)CC4)CC3)cc2)CC1 (stereo partly drawn) [compound 231]" numeric_value=492
